Taken from ChEMBL document CHEMBL1156596.

assay: Plasma concentration in Wistar rat plasma at 5 mg/kg, po after 24 hrs; format: ADME, organism-based; parameters: dose 5 mg/kg, route oral
READOUT KIND: concentration at 24 h
Write down the value, and be sure its unit follows.

# query: concentration at 24 h of entry COc1ccc2cc(-c3cncc4ccccc34)ccc2c1
1.28 ng/mL

---

target: Cytochrome P450 2D6 (Homo sapiens); test: Inhibition of human recombinant CYP2D6 expressed in insect microsomes; assay type: ADME, Microsome
Sequence (P10635 whole entry): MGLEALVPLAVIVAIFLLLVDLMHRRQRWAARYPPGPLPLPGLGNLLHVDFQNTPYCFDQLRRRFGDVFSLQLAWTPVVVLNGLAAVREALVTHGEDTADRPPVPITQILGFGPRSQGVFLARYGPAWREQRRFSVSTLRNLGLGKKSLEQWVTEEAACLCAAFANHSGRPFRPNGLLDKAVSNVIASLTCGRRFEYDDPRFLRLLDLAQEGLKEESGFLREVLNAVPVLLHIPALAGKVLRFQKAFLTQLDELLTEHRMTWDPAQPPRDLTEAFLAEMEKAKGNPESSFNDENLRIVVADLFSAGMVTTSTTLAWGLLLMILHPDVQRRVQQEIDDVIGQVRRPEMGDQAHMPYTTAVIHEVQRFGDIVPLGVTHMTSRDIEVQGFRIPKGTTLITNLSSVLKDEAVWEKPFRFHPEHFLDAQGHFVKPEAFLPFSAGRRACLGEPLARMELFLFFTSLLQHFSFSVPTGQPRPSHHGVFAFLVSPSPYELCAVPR
READOUT KIND: IC50

# query: IC50 of entry COc1cncc(-c2ccc3cc(OC)ccc3c2)c1
> 25 µM

# query: IC50 of entry COc1ccc2cc(-c3cncc(C(C)=O)c3)ccc2c1
> 200 µM

# query: IC50 of entry COc1ccc2cc(-c3cnccc3N)ccc2c1
11.1 µM

# query: IC50 of entry COc1ccc2cc(-c3cncc4ccccc34)ccc2c1
33.1 µM

---

biological target: Cytochrome P450 2B6 (Homo sapiens); test: Inhibition of human recombinant CYP2B6 expressed in insect microsomes
Sequence (P20813 whole entry): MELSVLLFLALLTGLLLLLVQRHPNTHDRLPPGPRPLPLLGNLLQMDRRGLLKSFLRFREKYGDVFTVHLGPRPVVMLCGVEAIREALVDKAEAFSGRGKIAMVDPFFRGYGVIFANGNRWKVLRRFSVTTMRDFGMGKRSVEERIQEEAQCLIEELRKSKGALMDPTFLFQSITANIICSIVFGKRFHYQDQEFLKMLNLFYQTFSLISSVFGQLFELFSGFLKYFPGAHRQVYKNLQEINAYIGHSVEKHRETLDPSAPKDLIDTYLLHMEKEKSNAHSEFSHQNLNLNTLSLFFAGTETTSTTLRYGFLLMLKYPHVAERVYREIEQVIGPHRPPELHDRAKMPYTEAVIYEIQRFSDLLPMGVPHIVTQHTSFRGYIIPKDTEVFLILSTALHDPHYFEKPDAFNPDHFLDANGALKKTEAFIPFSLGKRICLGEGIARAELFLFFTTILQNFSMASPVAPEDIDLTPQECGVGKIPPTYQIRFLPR
Answer each item with its documented IC50.

# query: IC50 of entry COc1ccc2cc(-c3cnccc3N)ccc2c1
> 50 µM

# query: IC50 of entry COc1cncc(-c2ccc3cc(OC)ccc3c2)c1
> 25 µM

# query: IC50 of entry COc1ccc2cc(-c3cncc4ccccc34)ccc2c1
16.5 µM

# query: IC50 of entry COc1ccc2cc(-c3cncc(C(C)=O)c3)ccc2c1
> 50 µM

---

assay: in vivo; details: Wistar, rat, in vivo, po, 5 mg/kg
READOUT KIND: AUC(0-inf) (ng·h/mL)
Respond with the bare value in ng·h/mL.

# query: AUC(0-inf) of entry N#Cc1ccc(C2CCCc3cncn32)cc1 (stereo unspecified)
3580

---

target: CYP1A2 (Homo sapiens, UniProt P05177); assay: Inhibition of human recombinant CYP1A2 expressed in insect microsomes at 2 uM; type: ADME, Microsome
Sequence (P05177 whole entry): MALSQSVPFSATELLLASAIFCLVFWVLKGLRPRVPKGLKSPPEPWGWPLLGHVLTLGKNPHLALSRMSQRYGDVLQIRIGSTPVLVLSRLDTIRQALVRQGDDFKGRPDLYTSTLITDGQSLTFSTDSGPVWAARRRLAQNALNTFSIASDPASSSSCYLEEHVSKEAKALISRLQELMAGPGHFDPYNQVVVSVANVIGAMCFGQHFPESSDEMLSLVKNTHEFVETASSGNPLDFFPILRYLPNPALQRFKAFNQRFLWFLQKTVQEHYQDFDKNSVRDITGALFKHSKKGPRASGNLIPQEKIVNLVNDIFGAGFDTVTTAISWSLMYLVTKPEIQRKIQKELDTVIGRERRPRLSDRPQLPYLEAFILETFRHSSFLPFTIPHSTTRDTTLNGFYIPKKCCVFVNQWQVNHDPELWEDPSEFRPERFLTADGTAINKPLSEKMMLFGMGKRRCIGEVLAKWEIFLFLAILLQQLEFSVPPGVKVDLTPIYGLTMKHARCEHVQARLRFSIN
Answer each item with its documented inhibition at 2 µM.
Respond with the bare value in %.

# query: inhibition at 2 µM of entry COc1ccc2cc(-c3cnccc3CO)ccc2c1
92

# query: inhibition at 2 µM of entry COCc1ccncc1-c1ccc2cc(OC)ccc2c1
97

# query: inhibition at 2 µM of entry COc1ccc2cc(-c3cncc4ccccc34)ccc2c1
57

# query: inhibition at 2 µM of entry N#Cc1ccc2cc(-c3cccnc3)ccc2c1
97

# query: inhibition at 2 µM of entry COc1ccc2c(c1)CC(C)C(c1cccnc1)=C2 (configuration not stated)
73

# query: inhibition at 2 µM of entry Cc1nc2c([nH]1)c(=O)n(C)c(=O)n2Cc1ccco1 [FURAFYLLINE]
55

# query: inhibition at 2 µM of entry COc1ccc2c(c1)CC(C)C(c1cncc3ccccc13)=C2 (configuration not stated)
6

# query: inhibition at 2 µM of entry COc1cncc(C2=Cc3ccc(OC)cc3CC2C)c1 (configuration not stated)
18

# query: inhibition at 2 µM of entry COc1ccc2cc(-c3cccnc3)c(C)cc2c1
93

# query: inhibition at 2 µM of entry COc1ccc2c(c1)CCC(c1cccnc1)=C2
98

# query: inhibition at 2 µM of entry N#Cc1ccc2c(c1)CCC(c1cccnc1)=C2
91

# query: inhibition at 2 µM of entry N#Cc1ccc(C2CCCc3cncn32)cc1 (configuration not stated) [FADROZOLE]
8

---

assay: Plasma concentration in Wistar rat plasma at 5 mg/kg, po after 2 hrs; format: ADME, organism-based; parameters: dose 5 mg/kg, route oral
Answer each item with its documented concentration at 2 h.
Write down the value, and be sure its unit follows.

# query: concentration at 2 h of entry COc1ccc2cc(-c3cncc4ccccc34)ccc2c1
55.8 ng/mL

# query: concentration at 2 h of entry COc1ccc2cc(-c3cccnc3)ccc2c1
145 ng/mL

---

Protein target, amino acids: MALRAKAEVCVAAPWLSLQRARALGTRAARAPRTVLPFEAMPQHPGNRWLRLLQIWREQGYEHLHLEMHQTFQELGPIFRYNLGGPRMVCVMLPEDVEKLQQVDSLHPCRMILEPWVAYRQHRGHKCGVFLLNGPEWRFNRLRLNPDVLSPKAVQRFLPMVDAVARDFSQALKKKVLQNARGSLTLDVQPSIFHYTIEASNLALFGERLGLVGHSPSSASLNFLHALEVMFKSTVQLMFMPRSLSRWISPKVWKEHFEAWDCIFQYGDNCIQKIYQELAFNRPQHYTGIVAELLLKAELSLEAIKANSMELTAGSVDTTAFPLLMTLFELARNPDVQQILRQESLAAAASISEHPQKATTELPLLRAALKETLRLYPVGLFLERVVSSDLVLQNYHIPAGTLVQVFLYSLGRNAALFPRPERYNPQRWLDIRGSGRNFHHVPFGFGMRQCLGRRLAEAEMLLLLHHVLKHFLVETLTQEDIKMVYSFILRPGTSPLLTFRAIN
Label scheme for IC50: range 1 (below 2 nM), range 2 (2 nM to below 5 nM), range 3 (5 nM or more)

Category of COc1ccc2cc(-c3cnccc3N)ccc2c1 , please.
range 3

Category of COc1ccc2cc(-c3cncc(C(N)=O)c3)ccc2c1 , please.
range 3

Category of COCc1ccncc1-c1ccc2cc(OC)ccc2c1 , please.
range 2

Category of COc1ccc2cc(-c3cncc(-c4ccccc4)c3)ccc2c1 , please.
range 2

Category of COc1ccc2cc(-c3cncc4ccccc34)c(C)cc2c1 , please.
range 2

Category of COc1ccc2cc(-c3cncc4ccccc34)ccc2c1 , please.
range 1

Category of COc1ccc2cc(-c3cnccc3C)ccc2c1 , please.
range 1

Category of COc1ccc2cc(-c3cnccc3CO)ccc2c1 , please.
range 3

Category of COc1ccc2cc(-c3cncc(O)c3)ccc2c1 , please.
range 3

Category of COc1ccc2cc(-c3cncc(C(C)OC)c3)ccc2c1 (stereo not drawn) , please.
range 1

Category of COc1ccc2c(c1)CC(C)C(c1cccnc1)=C2 (stereo not drawn) , please.
range 2

Category of COCc1cncc(-c2ccc3cc(OC)ccc3c2)c1 , please.
range 1

---

biological target: CYP17 (Homo sapiens, UniProt P05093); experiment: Inhibition of human recombinant CYP17 expressed in Escherichia coli at 2 uM
Sequence (P05093 whole entry): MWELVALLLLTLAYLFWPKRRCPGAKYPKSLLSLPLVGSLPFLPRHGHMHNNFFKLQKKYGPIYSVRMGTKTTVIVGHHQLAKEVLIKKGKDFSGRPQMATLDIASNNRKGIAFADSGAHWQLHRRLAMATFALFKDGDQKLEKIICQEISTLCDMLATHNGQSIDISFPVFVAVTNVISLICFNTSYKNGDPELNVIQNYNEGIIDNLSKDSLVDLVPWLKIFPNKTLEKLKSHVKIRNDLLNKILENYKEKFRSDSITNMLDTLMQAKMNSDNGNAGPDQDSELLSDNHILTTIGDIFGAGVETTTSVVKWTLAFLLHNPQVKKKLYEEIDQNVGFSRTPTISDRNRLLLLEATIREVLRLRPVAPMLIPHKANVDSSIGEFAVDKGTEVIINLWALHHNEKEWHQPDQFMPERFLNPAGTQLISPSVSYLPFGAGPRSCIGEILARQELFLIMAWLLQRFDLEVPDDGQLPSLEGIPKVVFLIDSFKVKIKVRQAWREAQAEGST
Answer each item with its documented inhibition at 2 µM.
Write down the value, and be sure its unit follows.

# query: inhibition at 2 µM of entry COc1ccc2cc(-c3cnccc3N)ccc2c1
42%

# query: inhibition at 2 µM of entry COc1cncc(-c2ccc3cc(OC)ccc3c2)c1
41%

# query: inhibition at 2 µM of entry COc1ccc2cc(-c3cncc4ccccc34)ccc2c1
39%

# query: inhibition at 2 µM of entry COc1ccc2cc(-c3cncc(C(C)=O)c3)ccc2c1
36%

---

molecular target: CYP11B1 (Homo sapiens, UniProt P15538); assay: in vitro; conditions: hamster V79 MZh cells expressing human CYP11B1
Sequence (P15538 whole entry): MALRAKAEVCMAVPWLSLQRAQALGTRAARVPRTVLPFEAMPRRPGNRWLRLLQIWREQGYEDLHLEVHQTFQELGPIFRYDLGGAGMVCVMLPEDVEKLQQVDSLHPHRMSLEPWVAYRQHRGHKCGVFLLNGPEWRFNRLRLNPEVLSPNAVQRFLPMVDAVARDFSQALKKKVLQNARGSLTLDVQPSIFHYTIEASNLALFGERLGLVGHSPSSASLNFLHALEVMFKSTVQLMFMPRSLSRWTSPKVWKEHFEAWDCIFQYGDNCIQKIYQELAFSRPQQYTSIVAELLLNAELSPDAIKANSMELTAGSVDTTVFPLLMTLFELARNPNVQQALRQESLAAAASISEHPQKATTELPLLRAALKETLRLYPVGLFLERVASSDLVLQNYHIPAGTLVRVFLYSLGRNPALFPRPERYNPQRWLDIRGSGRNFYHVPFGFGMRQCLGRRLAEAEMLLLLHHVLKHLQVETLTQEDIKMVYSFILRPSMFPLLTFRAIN
READOUT KIND: pIC50
Note: pIC50 values are expressed as the negative base-10 logarithm of concentration in M.

# query: pIC50 of entry N#Cc1ccc2cc(-c3cccnc3)ccc2c1
6.16

---

organism: Homo sapiens; test: Selectivity ratio of IC50 for human CYP11B1 to IC50 for human CYP11B2
Answer each item with its documented Ratio IC50.
Number only, no unit.

# query: Ratio IC50 of entry COc1ccc2cc(-c3cncc(C(N)=O)c3)ccc2c1
442

# query: Ratio IC50 of entry COc1ccc2cc(-c3cncc(CO)c3)ccc2c1
68

# query: Ratio IC50 of entry COCc1ccncc1-c1ccc2cc(OC)ccc2c1
198

# query: Ratio IC50 of entry COc1ccc2c(c1)CC(C)C(c1cncc3ccccc13)=C2 (centres undefined)
128

# query: Ratio IC50 of entry COc1ccc2cc(-c3cncc(C(C)=O)c3)ccc2c1
121

# query: Ratio IC50 of entry COc1ccc2c(c1)CC(C)C(c1cccnc1)=C2 (centres undefined)
79

# query: Ratio IC50 of entry Cc1ccncc1-c1ccc2cc(C#N)ccc2c1
87

# query: Ratio IC50 of entry COc1cncc(-c2cc3ccc(OC)cc3cc2C)c1
230

# query: Ratio IC50 of entry COc1ccc2cc(-c3cnccc3C)ccc2c1
143

# query: Ratio IC50 of entry COC(=O)Cc1cncc(-c2ccc3cc(OC)ccc3c2)c1
29

# query: Ratio IC50 of entry COc1ccc2cc(-c3cncc4ccccc34)c(C)cc2c1
272

# query: Ratio IC50 of entry COc1ccc2cc(-c3cncc(CC(=O)O)c3)ccc2c1
31

# query: Ratio IC50 of entry COc1ccc2cc(-c3cncc(O)c3)ccc2c1
95

# query: Ratio IC50 of entry CCOc1cncc(-c2ccc3cc(OC)ccc3c2)c1
73

---

biological target: CYP1A2 (Homo sapiens); assay: Inhibition of human recombinant CYP1A2 expressed in insect microsomes at 2 uM; format: ADME, Microsome
Lab note: anything with inhibition at 2 µM at or over 90% counts as TRUE; the rest go in FALSE.

Say whether COCc1cncc(-c2ccc3cc(OC)ccc3c2)c1 shows inhibition at 2 µM of 90% or more.
FALSE

Say whether COc1ccc2cc(-c3cccnc3)ccc2c1 shows inhibition at 2 µM of 90% or more.
TRUE

Say whether COc1ccc2cc(-c3cncc(O)c3)ccc2c1 shows inhibition at 2 µM of 90% or more.
TRUE

Say whether COc1ccc2cc(-c3cncc(C(C)=O)c3)ccc2c1 shows inhibition at 2 µM of 90% or more.
FALSE

Say whether COc1ccc2cc(-c3cncc(C(C)O)c3)ccc2c1 (configuration not stated) shows inhibition at 2 µM of 90% or more.
FALSE

Say whether Cc1ccncc1-c1ccc2cc(C#N)ccc2c1 shows inhibition at 2 µM of 90% or more.
FALSE
